All values here come from paper PMC9482650.

Entries and their pKd values follow.
Target: T1, PDZD7_3, Q9H5P4
T1 sequence (Q9H5P4 857-944, limits assumed, looked up): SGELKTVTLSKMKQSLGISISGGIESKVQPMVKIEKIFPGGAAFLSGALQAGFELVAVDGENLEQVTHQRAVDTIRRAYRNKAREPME
Experiment: holdup assay
Set-up: key: below the threshold = too weak to quantify, mostly under pKd 3.1 to 4
Settings: plain residues with an end cap or a label only (N-terminal biotin on a linker: ado-ado)
quantityKind: pKd

>>> numericresult("DTKNYKQTSV [CRIPT, Q9P021]")
3.94
>>> numericresult("PSVGSKKTVL [REELD1, A0A1B0GV85]")
4.67
>>> numericresult("ARGPPRESEV [FAM110D, Q8TAY7]")
4.47
